Test system: DMS-273
TEST_METHOD_NOTES: NCI tumour cell line growth inhibition, 48 h
Calls of active or inactive are those of the source. Cut-off read from the data, not from the text of the source: active = GI50 up to about 1.1 µM and inactive = higher.
Labels: active, inactive

- COMPOUND: "O=C(O)C1=C(C(=O)Nc2ccccc2)C2C=CC1C2 (stereo unspecified)"
  GROUP_LABEL: "inactive"
- COMPOUND: "COc1cc(/N=N\\c2ccc(OC)c(S(=O)(=O)O)c2)c(C)cc1/N=N\\c1ccc(/C=C/c2ccc(/N=[N+](/[O-])c3ccc(/C=C/c4ccc(/N=N/c5cc(C)c(/N=N\\c6ccc(OC)c(S(=O)(=O)O)c6)cc5OC)cc4S(=O)(=O)O)c(S(=O)(=O)O)c3)cc2S(=O)(=O)O)c(S(=O)(=O)O)c1"
  GROUP_LABEL: "inactive"
- COMPOUND: "CCOC(=O)c1cc2c(OCc3ccccc3)c(OC)cc3c2c(n1)N(c1ccc(OC)cc1)C(C)C3 (stereo unspecified)"
  GROUP_LABEL: "inactive"
- COMPOUND: "COCCN1C2=CCCCC2=Nc2c(N)nc(N)nc21"
  GROUP_LABEL: "inactive"
- COMPOUND: "OCCC1(O)CCC(O)CC1 (stereo unspecified)"
  GROUP_LABEL: "inactive"
- COMPOUND: "COC(=O)C(=O)C(C#N)c1ccc(Cl)c(Cl)c1 (stereo unspecified)"
  GROUP_LABEL: "inactive"
- COMPOUND: "COc1cc(C2c3cc4c(cc3[C@@H](Nc3ccc([N+](=O)[O-])cc3)C3COC(=O)[C@H]23)OCO4)cc(OC)c1O (stereo partly specified)"
  GROUP_LABEL: "active"
- COMPOUND: "O=c1c2ccccc2nc(-c2ccccc2)n1NC1OC(CO)C(O)C(O)C1O (stereo unspecified)"
  GROUP_LABEL: "inactive"
- COMPOUND: "NC(CCSCC(F)(F)F)C(=O)O (stereo unspecified)"
  GROUP_LABEL: "inactive"
- COMPOUND: "c1ccc2c(c1)CCc1c(-c3ccncc3)n[nH]c1-2"
  GROUP_LABEL: "inactive"
- COMPOUND: "Cc1ccc(NC(=O)c2nc(S)nc(N)c2-c2ccccc2C)cc1C"
  GROUP_LABEL: "inactive"
